MEASURED_TARGET: T1, E. coli-expressed recombinant cynomolgus IL-13 (cynomolgus, UniProt Q5I6E4 21-132 (Macaca thibetana entry))
T1 construct: also called cyno IL13 (CA); cIL-13
T1 chain: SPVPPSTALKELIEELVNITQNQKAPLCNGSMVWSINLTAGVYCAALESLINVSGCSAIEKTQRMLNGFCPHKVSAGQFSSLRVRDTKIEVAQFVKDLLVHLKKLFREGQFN
ASSAY_NOTES: BIAcore analysis 1, antibody captured, IL-13 in solution
EXPERIMENTAL_READOUT: koff (s⁻¹)
Respond with the bare value in s⁻¹.

Example results:
{"BINDER": "chimaeric 6A1 (antibody, human IgG1, V domains shown, Parent murine 6A1 V regions on human IgG1/k wild type C regions, expressed in CHO cells; also called 6A1c; 6A1 chimaeric antibody) VH: EIQLQQSVAELVRPGASVRLSCTASGFYIKDTYMHWVIQRPEQGLEWIGTIDPANGNTKYVPKFQGKATITADTSSNTAYLRLSSLTSEDTAIYYCARSIYDDYHYDDYYAMDYWGQGTSVTVSS VL: DVLMTQTPLSLPVSLGDQASISCRSSQNIVHINGNTYLEWYLQKPGQSPKLLIYKISDRFSGVPDRFSGSGSGTDFTLKISRVEAEDLGVYYCFQGSHVPWTFGGGTKLEIK", "koff, s⁻¹": "3.27e-05"}
{"BINDER": "monoclonal antibody 6A1 (antibody, IgG1, V domains shown, also called 6A1 parental mAb; parental mouse mAb 6A1) VH: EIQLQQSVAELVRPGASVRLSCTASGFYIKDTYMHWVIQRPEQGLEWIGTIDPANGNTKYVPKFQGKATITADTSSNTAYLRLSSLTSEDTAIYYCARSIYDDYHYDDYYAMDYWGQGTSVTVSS VL: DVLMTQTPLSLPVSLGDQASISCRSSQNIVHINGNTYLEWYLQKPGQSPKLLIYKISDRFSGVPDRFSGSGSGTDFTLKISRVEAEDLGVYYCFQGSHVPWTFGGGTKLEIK", "koff, s⁻¹": "5.6e-05"}

In: Provide koff value for the following binder: L1+A1 (antibody, human IgG1, kappa, V domains shown, Humanised 6A1, VH construct A1 and VL construct L1, human gamma1 wild type / kappa constant regions; also called A1L1; humanised anti-IL-13 mAb L1+A1) VH: QVQLVQSGAEVKKPGSSVKVSCKASGFYIKDTYMHWVRQAPGQGLEWMGTIDPANGNTKYVPKFQGRVTITADESTSTAYMELSSLRSEDTAVYYCARSIYDDYHYDDYYAMDYWGQGTLVTVSS VL: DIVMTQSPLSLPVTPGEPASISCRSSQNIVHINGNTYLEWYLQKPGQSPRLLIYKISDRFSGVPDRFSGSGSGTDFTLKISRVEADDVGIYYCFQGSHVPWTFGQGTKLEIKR
Out: 1.55e-05
